Value source: patent US5428038A

Hi there, I'd appreciate the recorded responders at 100 mg/kg for every entry that follows.
- Test system: NMDA-induced death
- Procedure Text: NMDA test (25 mg/kg i.v.), prevention of NMDA-induced death (neuroprotective efficacy)
- Type: in vivo, male NMRI mice
- Conditions: Mus musculus, po; 100 mg/kg p.o. 1 h before test; NMDA 25 mg/kg i.v.; read-out: Protective action (percentage of surviving animals)
- Procedure: In order to determine the neuroprotective and anticonvulsive activity of the compounds in accordance with the invention of the general formula I, two slightly different methods were employed as follows: […] 1. In order to determine the neuroprotective efficacy NMDA at a rate of 25 mg/kg/10 ml was administered intravenously to male NMRI mice with a body weight of 20 to 25 g. As a consequence of this application the animals suffer clonic and partly tonic convulsions, which lead to death. […]
Number in %, nothing else.

Please look up its responders at 100 mg/kg: COc1cc2ccc(=O)oc2cc1OCC(O)CN1CCC(c2ccccc2)CC1 (racemic) [Example 23]
100

Requested field: responders at 100 mg/kg. Item: COc1cc2oc(=O)c3c(c2cc1OCCCN1CCC(C(O)(c2ccc(F)cc2)c2ccc(F)cc2)CC1)CCC3 [Example 65]
12.5

Could you share which responders at 100 mg/kg value was measured for COc1cc2oc(=O)c3c(c2cc1OCCCN1CCN(c2ccc([N+](=O)[O-])cc2)CC1)CCC3 [Example 61] ?
25

Bench note: what responders at 100 mg/kg did COc1cc2oc(=O)ccc2cc1OCC(O)CN1CCC(O)(c2ccccc2)CC1 (racemic) [Example 24] show?
37.5

====

- System: NMDA-induced death
- Procedure Text: NMDA test (25 mg/kg i.v.), prevention of NMDA-induced death (neuroprotective efficacy)
- Format: in vivo, male NMRI mice
- Conditions: Mus musculus, po; 100 mg/kg p.o. 1 h before test; NMDA 25 mg/kg i.v.; read-out: Protective action (percentage of surviving animals)
I'd appreciate it if you could supply responders at 100 mg/kg values for the items below.
Give just the number in %; leave the unit off.

Give the reported responders at 100 mg/kg for COc1cc2oc(=O)ccc2cc1OCCCN1CCC(C(c2ccccc2)c2ccccc2)CC1 [Example 16] (system: NMDA-induced death).
75

Quick check: responders at 100 mg/kg on NMDA-induced death, item COc1cc2oc(=O)c(C)c(C)c2cc1OCCCN1CCN(Cc2ccc(Cl)cc2)CC1 [Example 30] ?
37.5

Lookup: responders at 100 mg/kg / NMDA-induced death / COc1cc2oc(=O)ccc2cc1OCC(O)CN1CCC(c2ccccc2)CC1 (racemic) [Example 22]
37.5

For the record COc1cc2ccc(=O)oc2cc1OCCCN1CCC(C(O)(c2ccccc2)c2ccccc2)CC1 [Example 17] , what value of responders at 100 mg/kg is listed for NMDA-induced death?
37.5

Item: COc1cc2ccc(=O)oc2cc1OCCCN1CCN(C(c2ccc(F)cc2)c2ccc(F)cc2)CC1 [Example 8] Test system: NMDA-induced death Read-out: responders at 100 mg/kg Value: ?
62.5

Missing value: responders at 100 mg/kg, NMDA-induced death, entry COc1cc2oc(=O)ccc2cc1OCC(O)CN1CCC(C(O)(c2ccc(F)cc2)c2ccc(F)cc2)CC1 (racemic) [Example 25] . Fill in?
100

Give recorded responders at 100 mg/kg with NMDA-induced death for the following molecule: COc1cc2oc(=O)cc(-c3ccccc3)c2cc1OCCCN1CCC(c2ccccc2)CC1 [Example 40]
37.5

====

For each entry below, report its responders at 50 mg/kg value.
- Test system: NMDA-induced death
- Procedure Text: NMDA test (25 mg/kg i.v.), prevention of NMDA-induced death (neuroprotective efficacy)
- Assay type: in vivo, male NMRI mice
- Conditions: Mus musculus, po; 50 mg/kg p.o. 1 h before test; NMDA 25 mg/kg i.v.; read-out: Protective action (percentage of surviving animals)
- Method: In order to determine the neuroprotective and anticonvulsive activity of the compounds in accordance with the invention of the general formula I, two slightly different methods were employed as follows: […] 1. In order to determine the neuroprotective efficacy NMDA at a rate of 25 mg/kg/10 ml was administered intravenously to male NMRI mice with a body weight of 20 to 25 g. As a consequence of this application the animals suffer clonic and partly tonic convulsions, which lead to death. […]
State the answer as a number, implicitly in %.

Field request: responders at 50 mg/kg | item: COc1cc2oc(=O)ccc2cc1OCC(O)CN1CCN(c2cccc(C(F)(F)F)c2)CC1 (racemic)
87.5

Bench note: what responders at 50 mg/kg did Fc1ccc(C(c2ccc(F)cc2)N2CCN(C/C=C/c3ccccc3)CC2)cc1 [flunarizin, reference compound] show?
100

What value of responders at 50 mg/kg has been reported for the following molecule? COc1ccc2c(c1)[C@]13CCCC[C@@H]1[C@H](C2)N(C)CC3 [dextromethorphan, reference compound]
50

Any idea what responders at 50 mg/kg was measured for COc1cc2ccc(=O)oc2cc1OCC(O)CN1CCN(c2cccc(C(F)(F)F)c2)CC1 (racemic) ?
62.5
